# System: Escherichia coli
# procedure-summary: Antibacterial activity against Escherichia coli ATCC 25922 after 16 to 22 hrs by broth dilution method
# Assay type: functional
readout-kind: MIC (µg/mL)
Please give a number only; it is taken to be in µg/mL.

[[record]]
molecule = "CC[C@H]1OC(=O)[C@H](C)[C@@H](O[C@H]2C[C@@](C)(OC)[C@@H](O)[C@H](C)O2)[C@H](C)[C@@H](O[C@@H]2O[C@H](C)C[C@H](N(C)C)[C@H]2O)[C@](C)(O)C[C@@H](C)CN(CCCNC(=S)Nc2ccccc2)[C@H](C)[C@@H](O)[C@]1(C)O"
readout_kind = "MIC"
reported = 8

[[record]]
molecule = "CC[C@H]1OC(=O)[C@H](C)[C@@H](O[C@H]2C[C@@](C)(OC)[C@@H](O)[C@H](C)O2)[C@H](C)[C@@H](O[C@@H]2O[C@H](C)C[C@H](N(C)C)[C@H]2O)[C@](C)(O)C[C@@H](C)CN(CCCN(CCC#N)C(=O)NC(C)c2cccc3ccccc23)[C@H](C)[C@@H](O)[C@]1(C)O (stereo partly drawn)"
readout_kind = "MIC"
reported = 32

[[record]]
molecule = "CC[C@H]1OC(=O)[C@H](C)[C@@H](O[C@H]2C[C@@](C)(OC)[C@@H](O)[C@H](C)O2)[C@H](C)[C@@H](O[C@@H]2O[C@H](C)C[C@H](N(C)C)[C@H]2O)[C@](C)(O)C[C@@H](C)CN(CCCNC(=O)NCc2ccccc2)[C@H](C)[C@@H](O)[C@]1(C)O"
readout_kind = "MIC"
reported = 8


For the molecule CC[C@H]1OC(=O)[C@H](C)[C@@H](O[C@H]2C[C@@](C)(OC)[C@@H](O)[C@H](C)O2)[C@H](C)[C@@H](O[C@@H]2O[C@H](C)C[C@H](N(C)C)[C@H]2O)[C@](C)(O)C[C@@H](C)CN(CCCN(CCC#N)C(=S)NCc2ccccc2)[C@H](C)[C@@H](O)[C@]1(C)O , the measured MIC on Escherichia coli was 16

For the molecule CC[C@H]1OC(=O)[C@H](C)[C@@H](O[C@H]2C[C@@](C)(OC)[C@@H](O)[C@H](C)O2)[C@H](C)[C@@H](O[C@@H]2O[C@H](C)C[C@H](N(C)C)[C@H]2O)[C@](C)(O)C[C@@H](C)CN(CCCN(CCC#N)C(=S)NCCCc2ccccc2)[C@H](C)[C@@H](O)[C@]1(C)O , the measured MIC on Escherichia coli was 16

For the molecule CC[C@H]1OC(=O)[C@H](C)[C@@H](O[C@H]2C[C@@](C)(OC)[C@@H](O)[C@H](C)O2)[C@H](C)[C@@H](O[C@@H]2O[C@H](C)C[C@H](N(C)C)[C@H]2O)[C@](C)(O)C[C@@H](C)CN(CCCNC(=O)NCCc2ccccc2)[C@H](C)[C@@H](O)[C@]1(C)O , the measured MIC on Escherichia coli was 16

For the molecule CC[C@H]1OC(=O)[C@H](C)[C@@H](O[C@H]2C[C@@](C)(OC)[C@@H](O)[C@H](C)O2)[C@H](C)[C@@H](O[C@@H]2O[C@H](C)C[C@H](N(C)C)[C@H]2O)[C@](C)(O)C[C@@H](C)CN(CCCNC(=S)NCCc2ccccc2)[C@H](C)[C@@H](O)[C@]1(C)O , the measured MIC on Escherichia coli was 32
